Recorded Eff. % values for a group of compounds are listed next.
# Tested on: Plasmopara viticola
# Assay Summary: Plasmopara test (grapevine)/protective
# Type: in vivo
# Condition: grapevine young plants, protective spray, active ingredient concentration 10 ppm, evaluation 6 days after inoculation; 0% = control, 100% = no infection
Measured Parameter: Eff. % (%)

1. C=CC(=O)Oc1ccccc1C1CC(c2csc(C3CCN(C(=O)Cn4nc(C(F)F)cc4C(F)F)CC3)n2)=NO1 (stereo not shown) : 100
2. CON=Cc1ccccc1C1CC(c2csc(C3CCN(C(=O)Nc4cc(Cl)ccc4C)CC3)n2)=NO1 (stereo not shown) : 81
3. CS(=O)(=O)Oc1ccccc1C1CC(c2csc(C3CCN(C(=O)Cn4nc(C(F)F)cc4C(F)F)CC3)n2)=NO1 (stereo not shown) : 100
4. C#CCN(C=O)c1ccccc1C1CC(c2csc(C3CCN(C(=O)Cn4nc(C(F)F)cc4C(F)F)CC3)n2)=NO1 (stereo not shown) : 96
5. Cc1ccc(C)c(NC(=O)N2CCC(c3nc(C4=NOC(c5ccccc5OS(C)(=O)=O)C4)cs3)CC2)c1 (stereo not shown) : 100
6. C#CCOCc1ccccc1C1CC(c2csc(C3CCN(C(=O)Cn4nc(C(F)F)cc4C(F)F)CC3)n2)=NO1 (stereo not shown) [I-138] : 98
7. CON=Cc1cccc(C2CC(c3csc(C4CCN(C(=O)Cn5nc(C(F)F)cc5C(F)F)CC4)n3)=NO2)c1 (mixture of isomers) : 94

Values were extracted from patent US9930890B2.
